For each record, write down the corresponding SPOT peptide array binding signal intensity.
Assay System: SpHof1-2
Experimental Protocol: SPOT peptide array binding signal intensity (averaged, normalized) (arbitrary units (background-subtracted, floor 0; scale differs between SH3 domains)); higher = stronger binding of the SH3 domain to the peptide
Give a plain numeric answer without units written out.

Which SPOT peptide array binding signal intensity value belongs to MKRSRPSRSIPYTTP ? 30

Item: VFQFQMPTTPISTKM 36.5

Item: NSVPIMPTLPPRPYI 34.5

Item: VPKEPAPAPPPEPDM 6.38

Item: RPPRPPPKPLHLRTE 15.5

Item: DLPLPDLPPEPPTEL 3

Item: FPPKRKPLLRPQRSD 16.8

Item: ALRRRLPVTRSKINW 80.8

Item: PKRRAPPPVPKKPSS 21

Item: RRSKSLPITPKSIFN 1340

Item: KRNRLKILLPFLEQS 14

Item: SLSRRRFSLPSMPNV 58.5
